Test system: rumen fermentation (strained rumen fluid)
Assay: Rumen in vitro model
Design: species or system steer
Conditions: 0.50 ppm; 24 h
Value Type: IBU (isobutyrate)

Below are worked cases with known answers.
# Compound, IBU (isobutyrate)
measured = [
    ("CNC1C(=O)NC2C(=O)NC(C(=O)NC3C(=O)NC4C(=O)NC(C(=O)NC(C(=O)O)c5cc(O)cc(OC6OC(CO)C(O)C(O)C6O)c5-c5cc4ccc5O)C(O)c4cc(Cl)c(c(Cl)c4)Oc4cc3cc(c4OC3OC(C(=O)O)C(O)C(O)C3NC(=O)CCCCCCCC(C)C)Oc3ccc(cc3Cl)C2O)c2cc(cc(O)c2Cl)Oc2cc1ccc2O (stereo not shown)", "108 % of control"),
    ("CNC1C(=O)NC2C(=O)NC(C(=O)NC3C(=O)NC4C(=O)NC(C(=O)NC(C(=O)O)c5cc(O)cc(OC6OC(CO)C(O)C(O)C6O)c5-c5cc4ccc5O)C(O)c4cc(Cl)c(c(Cl)c4)Oc4cc3cc(c4OC3OC(C(=O)O)C(O)C(O)C3NC(=O)CCCCCCCCC(C)C)Oc3ccc(cc3Cl)C2O)c2cc(cc(O)c2Cl)Oc2cc1ccc2O (stereo not shown)", "123 % of control"),
    ("CCCCCCCCCC(=O)NC1C(Oc2c3cc4cc2Oc2c(Cl)cc(cc2Cl)C(O)C2NC(=O)C(NC(=O)C4NC(=O)C4NC(=O)C(NC(=O)C(NC)c5ccc(O)c(c5)Oc5cc(O)c(Cl)c4c5)C(O)c4ccc(c(Cl)c4)O3)c3ccc(O)c(c3)-c3c(OC4OC(CO)C(O)C(O)C4O)cc(O)cc3C(C(=O)O)NC2=O)OC(C(=O)O)C(O)C1O (stereo not shown)", "125 % of control"),
]

Record CC[C@@]1([C@@H]2O[C@@H]([C@H]3O[C@@](O)(CO)[C@H](C)C[C@@H]3C)C[C@@H]2C)CC[C@H]([C@]2(C)CC[C@]3(C[C@H](O)[C@@H](C)[C@@H]([C@@H](C)[C@@H](OC)[C@H](C)C(=O)O)O3)O2)O1 , field IBU (isobutyrate): 112 % of control
